test: Single-dose CCK-8 cell viability screening (adherent cells); format: cell-based, human; settings: Homo sapiens; average of A549 and Jurkat % viability, 50 uM, 48 h
Would you kindly list viability at 50 µM for each of these compounds?

Query string: Fill in the blank: the reported viability at 50 µM of CC(C)(C)[C@]1(O)C[C@@H]2OC(=O)C[C@@]23C(=O)O[C@@H]2N(c4ccccc4)C(=O)[C@H](OC(=O)c4ccccc4)[C@]213 is ____.
Result string: 72.5%

Query string: Fill in the blank: the reported viability at 50 µM of CC(C)(C)[C@]1(O)C[C@@H]2OC(=O)C[C@@]23C(=O)O[C@@H]2NC(=O)[C@H](OC(=O)c4ccccc4)[C@]213 is ____.
Result string: 96.7%

Query string: Fill in the blank: the reported viability at 50 µM of C=C(C)[C@@]1(C)C[C@@H]2OC(=O)C[C@@]23C(=O)O[C@@H]2OC(=O)[C@H](OC(C)=O)[C@]213 is ____.
Result string: 105%

Query string: Fill in the blank: the reported viability at 50 µM of CC(C)(C)[C@]1(O)C[C@@H]2OC(=O)C[C@@]23C(=O)O[C@@H]2NC(=O)[C@H](O)[C@]213 is ____.
Result string: 99.2%

Query string: Fill in the blank: the reported viability at 50 µM of CC(C)(C)[C@]1(O)C[C@@H]2OC(=O)C[C@@]23C(=O)O[C@@H]2N(C4CCCC4)C(=O)[C@H](OC(=O)c4ccccc4)[C@]213 is ____.
Result string: 88.3%

Query string: Fill in the blank: the reported viability at 50 µM of C=C(C)[C@@]1(C)C[C@@H]2OC(=O)C[C@@]23C(=O)O[C@@H]2NC(=O)[C@H](O)[C@]213 is ____.
Result string: 104%

Query string: Fill in the blank: the reported viability at 50 µM of CC(C)(C)[C@]1(O)C[C@@H]2OC(=O)C[C@@]23C(=O)O[C@@H]2N(N)C(=O)[C@H](O)[C@]213 is ____.
Result string: 100%

Query string: Fill in the blank: the reported viability at 50 µM of CC(C)(C)[C@]1(O)C[C@@H]2OC(=O)C[C@@]23C(=O)O[C@@H]2N(C45CC(C4)C5)C(=O)[C@H](OC(=O)c4ccccc4)[C@]213 is ____.
Result string: 96.6%

* * *

Would you kindly list viability at 50 µM for each of these compounds?
Test system: A549 cells
Experiment: Single-dose CCK-8 cell viability screening (adherent cells)
Assay type: cell-based, human
Details: Homo sapiens, A549, 48 h, A549 cells, 50 uM, 48 h, CCK-8; read-out: % Viability (50 uM, 48 h) A549
Protocol: In this example, the anti-cancer properties of the BB analogues described in Table 1d were evaluated. Single-dose screening approach is used for initial testing to assess the cytotoxic effect of the BB analogues (also referred to as ‘BB compounds’) on Jurkat cells (human T cell leukaemia cells) and A549 cells (human lung cancer cells). […] Cells were incubated at 37° C.+5% CO2 for 46 hours. […] Absorbance at 450 nm was measured using a multiplate reader. Viability was calculated using the equation: […]
Your answer should be a number followed by the unit of measure.

Query string: Fill in the blank: the reported viability at 50 µM of CC(C)(C)[C@]1(O)C[C@@H]2OC(=O)C[C@@]23C(=O)O[C@@H]2N(C4COC4)C(=O)[C@H](OC(=O)c4ccccc4)[C@]213 [DW182] is ____.
Result string: 114%

Query string: Fill in the blank: the reported viability at 50 µM of CC(C)(C)[C@]1(O)C[C@@H]2OC(=O)C[C@@]23C(=O)O[C@@H]2N(c4ccc5ccccc5c4)C(=O)[C@H](OC(=O)c4ccccc4)[C@]213 [JW094] is ____.
Result string: 76.5%

Query string: Fill in the blank: the reported viability at 50 µM of CC(C)(C)[C@]1(O)C[C@@H]2OC(=O)C[C@@]23C(=O)O[C@@H]2N(c4cccc5c4OCO5)C(=O)[C@H](OC(=O)c4ccccc4)[C@]213 [XBB-068] is ____.
Result string: 93.6%

Query string: Fill in the blank: the reported viability at 50 µM of CC(C)(C)[C@]1(O)C[C@@H]2OC(=O)C[C@@]23C(=O)O[C@@H]2N(CCC4CCNCC4)C(=O)C(OC(=O)c4ccccc4)[C@]213 (stereo in doubt) [XBB-024] is ____.
Result string: 94.7%

Query string: Fill in the blank: the reported viability at 50 µM of CC(=O)O[C@H]1C(=O)N(CCn2cc3ccccc3c2C)[C@H]2OC(=O)[C@]34CC(=O)O[C@H]3C=C(C(C)(C)C)[C@@]214 [XBB-054] is ____.
Result string: 88.8%

Query string: Fill in the blank: the reported viability at 50 µM of CC(C)(C)[C@]1(O)C[C@@H]2OC(=O)C[C@@]23C(=O)O[C@@H]2N(C[C@H]4CCCO4)C(=O)[C@H](OC(=O)c4ccccc4)[C@]213 [P-5] is ____.
Result string: 98.7%

* * *

tested on: MCF-7 cells; experiment: Dose-dependent CCK8 viability assay; type: cell-based; conditions: Homo sapiens, MCF7, 48 hours
measuredQuantity: pIC50
Bear in mind: pIC50 is minus log10 of a mol/L concentration; give just that figure.

Query string: Fill in the blank: the reported pIC50 of CC(C)(C)[C@]1(O)C[C@@H]2OC(=O)C[C@@]23C(=O)O[C@@H]2N(CC4C5CC6CC(C5)CC4C6)C(=O)[C@H](OC(=O)c4ccccc4)[C@]213 (stereo partly shown) is ____.
Result string: 4.71

* * *

system: Jurkat cells; test: Single-dose CCK-8 cell viability screening (suspension cells); format: cell-based, human; conditions: Homo sapiens, Jurkat, 48 h, read-out: % Viability (50 uM, 48 h) Jurkat
Would you kindly list viability at 50 µM for each of these compounds?
Give the value in % but do not write % after it.

Query string: Fill in the blank: the reported viability at 50 µM of CC(C)(C)[C@]1(O)C[C@@H]2OC(=O)C[C@@]23C(=O)O[C@@H]2N(c4ccc(F)cc4)C(=O)[C@H](OC(=O)c4ccccc4)[C@]213 [P-28] is ____.
Result string: 69.2

Query string: Fill in the blank: the reported viability at 50 µM of CC(C)(C)[C@]1(O)C[C@@H]2OC(=O)C[C@@]23C(=O)O[C@@H]2N(c4cccc(C(F)(F)F)c4)C(=O)[C@H](OC(=O)c4ccccc4)[C@]213 [JW100] is ____.
Result string: 68.2

Query string: Fill in the blank: the reported viability at 50 µM of CC(C)(C)[C@]1(O)C[C@@H]2OC(=O)C[C@@]23C(=O)O[C@@H]2N(c4ccccc4)C(=O)[C@H](OC(=O)c4ccccc4)[C@]213 [XBB-034] is ____.
Result string: 89.1

Query string: Fill in the blank: the reported viability at 50 µM of CC(C)(C)[C@]1(O)C[C@@H]2OC(=O)C[C@@]23C(=O)O[C@@H]2N(c4ccc(N5CCOCC5)cc4)C(=O)[C@H](O)[C@]213 [XBB-042] is ____.
Result string: 97.8

Query string: Fill in the blank: the reported viability at 50 µM of CC(C)(C)[C@]1(O)C[C@@H]2OC(=O)C[C@@]23C(=O)O[C@@H]2N(C4CCCC4)C(=O)[C@H](OC(=O)c4ccccc4)[C@]213 [JW081] is ____.
Result string: 87.1

# credit: patent US20250144069A1
